kon for assorted binders
Molecular target: T1, recombinant human HER2 extracellular domain protein (human, UniProt P04626 23-652)
T1 construct: range 23-652; Range is printed for the immunogen/panning protein; also called ErbB2; recombinant HER2 protein
Test: BLI, Protein A capture
A number alone suffices; assume M⁻¹ s⁻¹.

Example entries begin here.
{"columns": ["BINDER", "READING UNIT", "kon"],
 "data": [
  ["Hu2117HK-Mu13 (Fc fusion, scFv-hIgG1 Fc; also called Hu2117HK-Mul3; not shown: human IgG1 Fc) scFv: EVQLVESGGGLVQPGGSLRLSCAASGFTYSSYGMSWVRQAPGKGLEWVASISGGGSYTKYPDSVKGRFTISRDNSKNTLYLQMNSLRAEDTAVYYCARDYAGFFDVWGQGTLVTVSSGGGGSGGGGSGGGGSDIQMTQSPSSLSASVGDRVTITCRSSQSLVHSNGNTYLHWYQQKPGKAPKLLIYKVSNRFSGVPSRFSGSGSGTDFTLTISSLQPEDFATYYCSQSTHVPYTFGQGTKVEIK", "M⁻¹ s⁻¹", 80100],
  ["Hu2117HK-Mu45 (Fc fusion, scFv-hIgG1 Fc; not shown: human IgG1 Fc) scFv: EVQLVESGGGLVQPGGSLRLSCAASGFTYSSYGMSWVRQAPGKGLEWVASISGGGSYTKYPDSVKGRFTISRDNSKNTLYLQMNSLRAEDTAVYYCARDYIGFFDVWGQGTLVTVSSGGGGSGGGGSGGGGSDIQMTQSPSSLSASVGDRVTITCRSSQSLVHSNGNTYLHWYQQKPGKAPKLLIYKVSNRFSGVPSRFSGSGSGTDFTLTISSLQPEDFATYFCSQSTHVPYTFGQGTKVEIK", "M⁻¹ s⁻¹", 98000],
  ["Hu2117HK-Mu05 (Fc fusion, scFv-hIgG1 Fc; not shown: human IgG1 Fc) scFv: EVQLVESGGGLVQPGGSLRLSCAASGFTFSSYGMSWVRQAPGKGLEWVASISGGGSYTKYPDSVKGRFTISRDNSKNTLYLQMNSLRAEDTAVYYCARDYAGFFDVWGQGTLVTVSSGGGGSGGGGSGGGGSDIQMTQSPSSLSASVGDRVTITCRSSQSLVHSNGNTYLHWYQQKPGKAPKLLIYKVSNRFSGVPSRFSGSGSGTDFTLTISSLQPEDFATYFCSQSTHVPYTFGQGTKVEIK", "M⁻¹ s⁻¹", 78300]
]}

The recorded kon for Hu2117HK-Mu08 (Fc fusion, scFv-hIgG1 Fc; not shown: human IgG1 Fc) scFv: EVQLVESGGGLVQPGGSLRLSCAASGFTYSSYGMSWVRQAPGKGLEWVASISGGGSYTKYADSVKGRFTISRDNSKNTLYLQMNSLRAEDTAVYYCARDYAGFFDVWGQGTLVTVSSGGGGSGGGGSGGGGSDIQMTQSPSSLSASVGDRVTITCRSSQSLVHSNGNTYLHWYQQKPGKAPKLLIYKVSNRFSGVPSRFSGSGSGTDFTLTISSLQPEDFATYFCSQSTHVPYTFGQGTKVEIK is 74500

The recorded kon for Hu2117HK-Mu18 (Fc fusion, name in Kabat numbering, scFv-hIgG1 Fc; not shown: human IgG1 Fc) scFv: EVQLVESGGGLVQPGGSLRLSCAASGFTYSSYGMSWVRQAPGKGLEWVASISGGGSYTKYPDSVKGRFTISRDNSKNTLYLQMNSLRAEDTAVYYCARDYAGFFDVWGQGTLVTVSSGGGGSGGGGSGGGGSDIQMTQSPSSLSASVGDRVTITCRSSQSLVHSLGNTYLHWYQQKPGKAPKLLIYKVSNRFSGVPSRFSGSGSGTDFTLTISSLQPEDFATYFCSQSTHVPYTFGQGTKVEIK is 42600
